Here, each record is paired with measured relative solubility at 20 uM data.
- experimentalConditions: 20.0 µM
Reply briefly: the number, and no unit.

1) COC1(CC(=O)Nc2cnccc2C)CC1 :: 1.01
2) C=CC(=O)N(c1ccc(C(C)(C)C)cc1)C(C(=O)Nc1ccc(OC)nc1)c1cccnc1 (stereo unspecified) :: 1
3) CCOCC(=O)NCc1ccc(CNC(=O)Cn2nnc3ccccc32)cc1 :: 0.99
4) Cc1ccncc1NC(=O)Cc1ccccc1 :: 1
5) COc1ccc2c(c1)CN(C(=O)CCl)C(c1ccccc1)C2 (stereo unspecified) :: 0.98

For `CCN(C)CC1CCN(c2ccc(S(N)(=O)=O)cc2)CC1` , what is its reported relative solubility at 20 uM? 1

// data source = the COVID Moonshot data (paper PMC11187573)
